- TESTED SYSTEM: TXA2 (Oryctolagus cuniculus)
- Construct: agonist TXA2 (from rabbit platelet-rich plasma) or U46619
- Sequence (Q6WQI8 1-233): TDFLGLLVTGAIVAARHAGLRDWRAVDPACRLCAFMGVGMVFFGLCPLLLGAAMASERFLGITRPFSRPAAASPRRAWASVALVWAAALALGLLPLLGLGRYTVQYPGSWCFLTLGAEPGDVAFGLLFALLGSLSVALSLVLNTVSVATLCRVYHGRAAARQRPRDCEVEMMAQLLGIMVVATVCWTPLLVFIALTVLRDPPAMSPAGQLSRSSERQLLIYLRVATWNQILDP
- MEASUREMENT DESCRIPTION: Test (a): rabbit aortal strip model, TXA2 antagonism
- CONDITION CONTEXT: (+0.05) for (i)-(iii)
MEASURED METRIC: pA2

1. N#Cc1ccccc1[C@H]1OC[C@@H](C/C=C\CCC(=O)O)[C@@H](c2ccccc2O)O1 (relative stereo) [compound (ii)]; 8.09
2. O=C(O)CC/C=C\C[C@@H]1CO[C@H](c2ccccc2Cl)O[C@@H]1c1ccccc1O (relative stereo) [compound (i)]; 8.02
3. O=C(O)CCC/C=C\C[C@@H]1CO[C@H](c2ccccc2Cl)O[C@@H]1c1ccccc1 (relative stereo) [(iv), reference compound]; 6.22
4. N#Cc1ccc([C@H]2OC[C@@H](C/C=C\CCCC(=O)O)[C@@H](c3ccccc3)O2)cc1 (relative stereo) [(v), reference compound]; 5.65
5. N#Cc1ccc([C@H]2OC[C@@H](C/C=C\CCC(=O)O)[C@@H](c3ccccc3O)O2)cc1 (relative stereo) [compound (iii)]; 7.45
